tested target: GlcNAc(b1-3)Man
procedure summary: glycan array binding signal (z-score within array); higher = stronger binding
experimental setup: glycan notation: IUPAC condensed, linker removed
The entries come from a sample that favours the strongest signals as a whole.

[
  {
    "binder": "ArathEULS3 TAP (Arabidopsis thaliana) (protein) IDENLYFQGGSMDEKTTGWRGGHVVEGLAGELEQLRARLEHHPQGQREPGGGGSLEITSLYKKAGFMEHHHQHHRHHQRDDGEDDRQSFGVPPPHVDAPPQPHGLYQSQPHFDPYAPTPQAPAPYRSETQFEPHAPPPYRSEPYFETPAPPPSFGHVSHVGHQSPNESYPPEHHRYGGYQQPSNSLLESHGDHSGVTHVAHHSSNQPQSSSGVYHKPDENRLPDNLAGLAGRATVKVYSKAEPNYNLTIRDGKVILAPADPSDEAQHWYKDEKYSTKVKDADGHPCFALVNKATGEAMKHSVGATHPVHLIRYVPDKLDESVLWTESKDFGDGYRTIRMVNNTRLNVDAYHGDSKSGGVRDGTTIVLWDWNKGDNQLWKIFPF",
    "glycan array binding signal (z-score)": 0.29
  }
]
